B1: KRT15 (parent)
chain: FGGGSTRGGSLLAGGGGFGGGSLS

- Variants of: B1
- EXPERIMENT_NOTES: protein stability index of a GFP-peptide fusion (GPS, HEK-293T) (PSI 1-6); higher = more stable;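 note: lentivirally expressed fusions sorted by FACS into six bins by GFP to DsRed ratio, PSI derived from sequencing read proportions per bin multiplied by bin number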
- MEASUREMENT_SETUP: c terminus: a fixed tail appended
Everything with protein stability index lower than 2 is label 0; everything else, including exactly 2, is label 1.

POLYMER_SEQUENCE	GROUP
FGGGSTRGGSLLAGGGGFGGDSLS [G21D]	label 0
FGGGSTRGGSLLAGGGVFGGGSLS [G17V]	label 0
FGGGSTRGGSLLAGGEGFGGGSLS [G16E]	label 0
FGGGSTRGGILLAGGGGFGGGSLS [S10I]	label 0
FGGGSTRGGSLLAGGGGFGPGSLS [G20P]	label 1
FGGGSTRGGWLLAGGGGFGGGSLS [S10W]	label 1
FGGGSTRGGSLPAGGGGFGGGSLS [L12P]	label 1
FGGGSTRGDSLLAGGGGFGGGSLS [G9D]	label 1
FFGGSTRGGSLLAGGGGFGGGSLS [G2F]	label 1
FGGGSTRGGSLLAGGGSFGGGSLS [G17S]	label 0
